Reported IC50 values for the following compounds.
Target: Mitogen-activated protein kinase 10 (Homo sapiens, UniProt P53779)
Sequence (P53779 whole entry): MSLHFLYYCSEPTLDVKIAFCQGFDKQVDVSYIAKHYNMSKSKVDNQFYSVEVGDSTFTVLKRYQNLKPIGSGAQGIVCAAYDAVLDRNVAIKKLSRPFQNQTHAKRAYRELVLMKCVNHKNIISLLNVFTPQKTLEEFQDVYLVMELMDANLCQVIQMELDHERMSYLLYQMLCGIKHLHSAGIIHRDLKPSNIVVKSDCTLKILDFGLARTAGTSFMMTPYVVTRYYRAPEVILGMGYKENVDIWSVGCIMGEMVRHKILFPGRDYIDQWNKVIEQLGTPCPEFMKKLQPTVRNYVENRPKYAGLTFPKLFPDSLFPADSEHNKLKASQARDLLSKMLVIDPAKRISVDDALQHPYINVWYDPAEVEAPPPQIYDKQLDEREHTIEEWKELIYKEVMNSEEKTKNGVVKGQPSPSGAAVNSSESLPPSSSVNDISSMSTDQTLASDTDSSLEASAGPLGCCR
Experiment: Inhibition of recombinant JNK3 after 15 mins

QUERY SMILES: O=C(NC[C@@H]1CCCN1)c1ccc(-c2cnc3ccc(NCc4cccc(Cl)c4)nn23)cc1
ASSAY TARGET: Mitogen-activated protein kinase 10 (Homo sapiens, UniProt P53779)
UNIT INFO: µM
MODIFIER: =
IC50: 78

QUERY SMILES: O=C(NC[C@@H]1CCCN1)c1ccc(-c2cnc3ccc(NCC4CC4)nn23)cc1
ASSAY TARGET: Mitogen-activated protein kinase 10 (Homo sapiens, UniProt P53779)
UNIT INFO: µM
MODIFIER: >
IC50: 100

QUERY SMILES: O=C(NCCN1CCCC1)c1ccc(-c2cnc3ccc(NCc4ccc(Cl)c(Cl)c4)nn23)cc1
ASSAY TARGET: Mitogen-activated protein kinase 10 (Homo sapiens, UniProt P53779)
UNIT INFO: µM
MODIFIER: =
IC50: 90

QUERY SMILES: CN(C)CCNC(=O)c1ccc(-c2cnc3ccc(NCC4CC4)nn23)cc1
ASSAY TARGET: Mitogen-activated protein kinase 10 (Homo sapiens, UniProt P53779)
UNIT INFO: µM
MODIFIER: >
IC50: 100

QUERY SMILES: O=C(NC[C@@H]1CCCN1)c1ccc(-c2cnc3ccc(NCc4ccc(Cl)c(Cl)c4)nn23)cc1
ASSAY TARGET: Mitogen-activated protein kinase 10 (Homo sapiens, UniProt P53779)
UNIT INFO: µM
MODIFIER: >
IC50: 100
